System: Chitinase (Hypocrea rufa, UniProt D2K848) | Read-out: pKi
Sequence (D2K848 whole entry): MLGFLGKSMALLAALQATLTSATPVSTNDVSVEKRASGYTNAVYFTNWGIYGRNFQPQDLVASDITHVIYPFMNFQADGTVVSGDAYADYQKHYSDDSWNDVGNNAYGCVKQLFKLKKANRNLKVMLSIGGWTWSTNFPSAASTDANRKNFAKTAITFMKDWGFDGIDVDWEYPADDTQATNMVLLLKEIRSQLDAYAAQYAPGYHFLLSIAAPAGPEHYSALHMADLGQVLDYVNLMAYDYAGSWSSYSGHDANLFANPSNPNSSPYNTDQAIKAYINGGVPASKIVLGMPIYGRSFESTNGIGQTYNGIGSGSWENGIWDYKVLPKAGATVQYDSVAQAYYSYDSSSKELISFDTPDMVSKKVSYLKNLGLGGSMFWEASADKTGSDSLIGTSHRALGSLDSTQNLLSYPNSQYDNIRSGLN
Numbers only, as −log10 of the molar value.

Check out these entries, answers already filled in.
CNC(=O)NC(=N)NCCCCCCCCN1CCCCCCOc2ccccc2CNC(=N)NC1=O : 6.66
C=C(C)CNC(=N)NCCCCCCN1CCCCCCCCNC(=N)NC1=O : 4.46

Give one value of pKi per listed molecule.
1. N=C(NCCCCCCCCN1CCCCCCCCNC(=N)NC1=O)NCC1CC1
2. C/C=C/CNC(=N)NCCCCCCCCN1CCCCCCCCNC(=N)NC1=O
3. C/C=C/CNC(=N)NCCCCCCN1CCCCCCCCNC(=N)NC1=O
4. C#CCNC(=N)NCCCCCCN1CCCCCCCCNC(=N)NC1=O
5. CCNC(=N)NCCCCCCN1CCCCCCCCNC(=N)NC1=O
6. C/C=C/CNC(=N)NCCCCCCCCN1CCCCCOc2ccccc2CNC(=N)NC1=O
7. C/C=C/CNC(=N)NCCCCCCCCN1CCCCCCOc2ccccc2CNC(=N)NC1=O

[A]
1: 4.38; 2: 4.29; 3: 4.45; 4: 4.50; 5: 4.34; 6: 4.75; 7: 4.85

Where do these numbers come from? They come from ChEMBL document CHEMBL4033747.
